src = PubChem BioAssay (NCI)

Assay: NCI Yeast Anticancer Drug Screen. Data for the sgs1 mgt1 strain (AID 161);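 also: 0% = growth of cultures given vehicle only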
Conditions: S. cerevisiae sgs1 mgt1 strain, at 50.0 µM
This is part of a sample that, as a whole, favours compounds with a hit. Of some 79,000 tested, about 15% had one in any assay. The source made the active and inactive calls. Rule as the data show it: active = growth inhibition above about 70%; inactive = the rest. Where a SMILES comes first, the peptide text is derived from it. The star is where a group is joined. Cbz = O=C(OCc1ccccc1)*
Choose one outcome from this list and give only that: true (1) for active, false (0) for inactive

// below: answered compounds
NCCC(=O)OC1CCCc2c(O)c3c(c(O)c21)C(=O)c1ccccc1C3=O (stereo not drawn)	true (1)
CC(C)(C)NC(=O)CCC(=O)O	false (0)
COc1ccc2c(ccc3[nH]c4c(C)cnc(NCCCN(C)C)c4c32)c1	false (0)
COC(=O)c1nc(N)nc(C(=O)OC)c1C(=O)C(C)C	false (0)
CC(C)(C)C(=O)C(C#N)C(=O)C(C)(C)C	false (0)
CSCCC(NC(=O)C(Cc1ccccc1)NC(=O)OCc1ccccc1)C(=O)O (stereo not drawn) (Cbz-Phe-Met-OH; configuration not given here)	false (0)

Please let me know the test result on file for `Cn1c(=O)c2c(nc(C3CC3)n2C)n(C)c1=O` .
false (0)

Please let me know the test result on file for `Nc1cc([N+](=O)[O-])ccc1-c1ccc([N+](=O)[O-])cc1` .
false (0)
